Target: Probable G-protein coupled receptor 139 (Homo sapiens) (UniProt Q6DWJ6)
Sequence (whole entry): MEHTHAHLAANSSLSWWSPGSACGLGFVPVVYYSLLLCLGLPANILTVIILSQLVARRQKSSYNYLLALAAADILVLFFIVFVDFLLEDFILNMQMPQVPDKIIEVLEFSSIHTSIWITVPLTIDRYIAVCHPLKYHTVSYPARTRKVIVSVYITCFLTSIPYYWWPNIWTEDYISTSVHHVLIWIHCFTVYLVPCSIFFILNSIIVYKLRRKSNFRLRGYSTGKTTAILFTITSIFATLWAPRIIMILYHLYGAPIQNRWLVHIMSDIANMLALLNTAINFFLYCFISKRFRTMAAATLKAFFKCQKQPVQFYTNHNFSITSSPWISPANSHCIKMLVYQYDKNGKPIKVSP
Test: Agonist activity at human GPR139 expressed in CHO-K1 cells assessed as induction of beta-arrestin 2 recruitment incubated for 90 mins by PathHunter assay relative to JNJ63533054
Type: cell-based
Details: filed as agonist
property.name: Emax (%)

| smiles.data | Emax / % |
| --- | --- |
| Cc1ccc([C@H](C)NC(=O)Cn2nc3ccc(C)cn3c2=O)cc1 | 50 |
| C[C@H](NC(=O)Cn1nc2ncccn2c1=O)c1ccc(Cl)c(F)c1 | 50 |

---

Biological target: UniProt:P0C0W8
Sequence (P0C0W8 whole entry): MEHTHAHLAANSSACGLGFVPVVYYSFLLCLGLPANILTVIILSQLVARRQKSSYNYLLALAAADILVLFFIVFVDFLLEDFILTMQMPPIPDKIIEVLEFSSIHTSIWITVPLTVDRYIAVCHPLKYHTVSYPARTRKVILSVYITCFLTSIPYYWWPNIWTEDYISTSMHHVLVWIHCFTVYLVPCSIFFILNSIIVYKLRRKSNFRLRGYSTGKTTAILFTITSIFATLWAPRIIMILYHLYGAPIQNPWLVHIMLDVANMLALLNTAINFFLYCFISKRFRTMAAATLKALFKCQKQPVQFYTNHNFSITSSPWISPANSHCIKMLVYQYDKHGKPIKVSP
Test: Agonist activity at rat GPR139 expressed in CHO-K1 cells assessed as increase in calcium flux by calcium 5 dye based FLIPR assay
Type: cell-based
pEC50: −log10 of the molar value.
property.name: pEC50

Look over these answered cases.
| compound | pEC50 |
| --- | --- |
| C[C@H](NC(=O)Cn1nc2cc(Cl)ccn2c1=O)c1ccc(Cl)c(F)c1 | > 9.00 |
| Cc1ccc([C@H](C)NC(=O)C(C)n2nc3ccccn3c2=O)cc1 (stereo in doubt; form 2) | > 9.00 |
| Cc1ccn2c(=O)n(CC(=O)N[C@@H](C)c3ccc(Cl)c(F)c3)nc2c1 | > 9.00 |
| C[C@H](NC(=O)Cn1nc2ncccn2c1=O)c1ccc(Cl)cc1 | ≤ 7.00 |

# input for lookup
The compound listed as C[C@@H](NC(=O)Cn1nc2ccccn2c1=O)c1ccc(Cl)c(F)c1 has a reported pEC50 of > 9.00

---

target: Probable G-protein coupled receptor 139 (Rattus norvegicus, UniProt P0C0W8); test: Agonist activity at rat GPR139 expressed in CHO-K1 cells assessed as increase in calcium flux by calcium 5 dye based FLIPR assay; type: cell-based
property.name: EC50

Look over these answered cases.
| compound | EC50 |
| --- | --- |
| C[C@H](NC(=O)Cn1nc2ncccn2c1=O)c1ccc(OC(F)(F)F)c(F)c1 | ≥ 100 nM |
| CNc1cccn2c(=O)n(CC(=O)N[C@@H](C)c3ccc(C)cc3)nc12 | < 1 nM |
| C[C@H](NC(=O)Cn1nc2c(OC3CNC3)nccn2c1=O)c1ccc(Cl)c(F)c1 | ≥ 100 nM |
| C[C@H](NC(=O)Cn1nc2ccc(Cl)nn2c1=O)c1ccc(Cl)c(F)c1 | < 1 nM |
| Cc1ccn2c(=O)n(CC(=O)N[C@@H](C)c3ccc(OC(F)(F)F)cc3)nc2n1 | ≥ 100 nM |
| CC(C(=O)N[C@@H](C)c1ccc(Cl)c(F)c1)n1nc2ccccn2c1=O (stereo in doubt; form 1) | < 1 nM |
| C[C@H](NC(=O)Cn1nc2ccccn2c1=O)c1ccc(Cl)cc1 | < 1 nM |
| COc1ccc2nn(CC(=O)N[C@@H](C)c3ccc(C)cc3)c(=O)n2c1 | < 1 nM |

# input for lookup
The compound listed as CC(C(=O)N[C@@H](C)c1ccc(Cl)c(F)c1)n1nc2ncccn2c1=O (stereo in doubt; form 2) has a reported EC50 of ≥ 100 nM

---

molecular target: Probable G-protein coupled receptor 139 (Homo sapiens) (UniProt Q6DWJ6); experiment: Agonist activity at human GPR139 expressed in CHO-K1 cells assessed as induction of beta-arrestin 2 recruitment incubated for 90 mins by PathHunter assay relative to JNJ63533054; type: cell-based; details: filed as agonist
property.name: Emax (%)

| smiles.data | value.unit | Emax |
| --- | --- | --- |
| Cc1cnn2c(=O)n(CC(=O)N[C@@H](C)c3ccc(Cl)c(F)c3)nc2c1 | % | 50 |
| Cc1ccc([C@H](C)NC(=O)Cn2nc3ncccn3c2=O)cc1F | % | 50 |

---

Target: Probable G-protein coupled receptor 139 (Homo sapiens)
Sequence (whole entry): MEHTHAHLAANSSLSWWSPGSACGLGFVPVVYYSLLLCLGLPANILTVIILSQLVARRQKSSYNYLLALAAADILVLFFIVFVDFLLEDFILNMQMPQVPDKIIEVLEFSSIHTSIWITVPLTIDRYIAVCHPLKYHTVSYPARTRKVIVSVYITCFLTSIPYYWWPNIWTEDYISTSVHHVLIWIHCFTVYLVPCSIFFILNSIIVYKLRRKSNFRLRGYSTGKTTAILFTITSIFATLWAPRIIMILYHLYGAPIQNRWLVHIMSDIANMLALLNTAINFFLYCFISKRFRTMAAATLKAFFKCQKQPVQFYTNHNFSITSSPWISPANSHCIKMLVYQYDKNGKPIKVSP
Experiment: Agonist activity at human GPR139 expressed in CHO-K1 cells assessed as induction of beta-arrestin 2 recruitment incubated for 90 mins by PathHunter assay relative to JNJ63533054
Type: cell-based
Details: filed as agonist
property.name: Emax (%)

| smiles.data | observed.result |
| --- | --- |
| Cc1ccc([C@H](C)NC(=O)Cn2nc3cccc(F)n3c2=O)cc1 | 50 |
| Cc1cc([C@H](C)NC(=O)Cn2nc3cccnn3c2=O)ccc1Cl | 50 |
| Cc1ccc([C@H](C)NC(=O)Cn2nc3cccnn3c2=O)cc1F | 50 |
| Cc1ccc([C@H](C)NC(=O)Cn2nc3ccc(F)cn3c2=O)cc1 | 50 |
| Cc1ccc([C@H](C)NC(=O)Cn2nc3ccccn3c2=O)cc1 | 50 |
| C[C@H](NC(=O)Cn1nc2ccc(C3CC3)nn2c1=O)c1ccc(Cl)c(F)c1 | 50 |
| Cc1ccc([C@H](C)NC(=O)Cn2nc3cc(Cl)ccn3c2=O)cc1 | 50 |

---

biological target: Probable G-protein coupled receptor 139 (Rattus norvegicus, UniProt P0C0W8); assay: Agonist activity at rat GPR139 expressed in CHO-K1 cells assessed as increase in calcium flux by calcium 5 dye based FLIPR assay; assay type: cell-based
The reader will find reported EC50 values listed item by item below.

Look over these answered cases.
| smiles.data | test.system | EC50 |
| --- | --- | --- |
| C[C@H](NC(=O)Cn1nc2cc(I)ccn2c1=O)c1ccc(Cl)c(F)c1 | Probable G-protein coupled receptor 139 (Rattus norvegicus, UniProt P0C0W8) | < 1 nM |
| C[C@H](NC(=O)Cn1nc2ccccn2c1=O)c1ccc(Cl)c(F)c1 | Probable G-protein coupled receptor 139 (Rattus norvegicus, UniProt P0C0W8) | < 1 nM |
| C[C@H](NC(=O)Cn1nc2ncccn2c1=O)c1ccc(C2CC2)cc1 | Probable G-protein coupled receptor 139 (Rattus norvegicus, UniProt P0C0W8) | ≥ 100 nM |
| C[C@H](NC(=O)Cn1nc2cc(Cl)ccn2c1=O)c1ccc(OC(F)(F)F)cc1 | Probable G-protein coupled receptor 139 (Rattus norvegicus, UniProt P0C0W8) | < 1 nM |
| C[C@H](NC(=O)Cn1nc2c(OC3CN(C)C3)nccn2c1=O)c1ccc(Cl)c(F)c1 | Probable G-protein coupled receptor 139 (Rattus norvegicus, UniProt P0C0W8) | ≥ 100 nM |
| Cc1ccc([C@H](C)NC(=O)Cn2nc3ccc(Br)cn3c2=O)cc1 | Probable G-protein coupled receptor 139 (Rattus norvegicus, UniProt P0C0W8) | < 1 nM |
| Cc1ccn2c(=O)n(CC(=O)N[C@@H](C)c3ccc(Cl)c(F)c3)nc2n1 | Probable G-protein coupled receptor 139 (Rattus norvegicus, UniProt P0C0W8) | ≥ 100 nM |
| C[C@H](NC(=O)Cn1nc2ccc(C3CC3)nn2c1=O)c1ccc(OC(F)(F)F)cc1 | Probable G-protein coupled receptor 139 (Rattus norvegicus, UniProt P0C0W8) | ≥ 100 nM |

The compound listed as Cc1ccnc2nn(CC(=O)N[C@@H](C)c3ccc(OC(F)(F)F)cc3)c(=O)n12 has a reported EC50 of ≥ 100 nM

The compound listed as C[C@H](NC(=O)Cn1nc2ccc(N3CCCCC3)nn2c1=O)c1ccc(OC(F)(F)F)cc1 has a reported EC50 of ≥ 100 nM
